biological target: human CD3 ed (human, UniProt P07766 23-126; P04234 22-105, limits assumed); assay: SPR Biacore T200, IgG captured on protein A, 25 C;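 also: antigens diluted in ACES running buffer at pH 7.4 were flowed over antibodies held on a CM3 chip bearing amine-coupled protein A, with buffer alone serving as blank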
Sequence (P07766 23-126 limits assumed, chain 1 of 2): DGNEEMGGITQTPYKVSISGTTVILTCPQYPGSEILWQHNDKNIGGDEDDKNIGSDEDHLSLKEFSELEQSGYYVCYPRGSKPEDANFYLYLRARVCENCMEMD
Sequence (P04234 22-105 limits assumed, chain 2 of 2): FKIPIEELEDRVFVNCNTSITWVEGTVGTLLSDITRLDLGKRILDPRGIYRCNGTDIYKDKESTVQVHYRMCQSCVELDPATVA
As shown below, each of these binders has a reported kon value.
# unit: M⁻¹ s⁻¹ | format: bare number

dBBDu189/L116 (antibody, V domains shown, IgG format; constant regions not specified) VH: QVQLVESGGGLVQPGRSLRLSCAASGFTFSNAWMHWVRQAPGKGLEWIAQIKDRSNQYATYYAPSVKGRFTISRDDSKNSIYLQMNSLKTEDTAVYYCHYVHYAQASSLLPSFGVDAWGQGTTVTVSS VL: DIVMTQSPLSLPVTPGEPASISCSSSQELVHANRQIYLHWYQQKPGQAPRLLIYKVANRFPGVPDRFSGSGSGTDFTLKISRVEAEDVGVYYCAQGTQVPFTFGQGTKLEIK    20800
dBBDu189/L119 (antibody, V domains shown, IgG format; constant regions not specified) VH: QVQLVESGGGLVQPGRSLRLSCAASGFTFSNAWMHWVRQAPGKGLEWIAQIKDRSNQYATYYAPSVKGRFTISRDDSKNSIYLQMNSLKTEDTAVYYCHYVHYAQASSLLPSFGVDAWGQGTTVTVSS VL: DIVMTQSPLSLPVTPGEPASISCTASQELVHINRFIFLHWYQQKPGQAPRLLIYKVSNRFIGVPDRFSGSGSGTDFTLKISRVEAEDVGVYYCAQGSQVPFTFGQGTKLEIK    12500

Now for the binder whose kon we want.
Ask: Tell me its kon given dBBDu183/L067 (antibody, V domains shown, IgG format; constant regions not specified) VH: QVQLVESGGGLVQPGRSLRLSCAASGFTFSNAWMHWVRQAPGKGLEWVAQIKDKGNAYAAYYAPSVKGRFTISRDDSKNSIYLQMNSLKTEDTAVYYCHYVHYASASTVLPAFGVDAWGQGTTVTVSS VL: DIVMTQSPLSLPVTPGEPASISCQSSESLVHVNRHTYLHWYQQKPGQAPRLLIYKVYNRFPGVPDRFSGSGSGTDFTLKISRVEAEDVGVYYCAQGTSVPFTFGQGTKLEIK as the entry.
Reply: 88900
